assay: protein stability index of a GFP-peptide fusion (yeast GPS) (PSI 1-4); higher = more stable; sorted into four equal gates, so the index is relative within each strain; settings: ubr1∆
observable: protein stability index

• HIFQVEYALEAVKRGTC [PRE6] = 2.77
• VFENYVKKTGENEISSL [CDC53] = 3.15
• NPYSSYVSQIRKHKRVS [YAR002W/NUP60] = 2.38
• AQFRVPRYHSKNSFQQA [SWP82] = 2.62
• FVFQTVFDTAITSWYEN [QCR9] = 1.97
• PVIGVFQKFLTGHPKGA [FAS2] = 3.52
• KYRPETAAEKKERLTKE [RPL8A] = 3.01
• NKGLVVSPYDYNHKRVS [DIB1] = 2.33
• EESIRESLQKRELLKSQ [SIR3] = 3.12
• YWQYKAGIPIGLKRSQL [SWP82] = 1.49
• ENIIQMEMIENRTMDGK [FAS1] = 3.02
• EQVLSAAATFPIAQPAT [RPL13A] = 2.54
• EISPQDSIASVLSPDSN [GAL11] = 2.64
• NLKVELKEQSEQLKEQM [SMC4] = 3.2

---

assay: protein stability index of a GFP-peptide fusion (yeast GPS) (PSI 1-4); higher = more stable; sorted into four equal gates, so the index is relative within each strain; conditions: pdr5∆
protein stability index below 3 gives False; protein stability index at or above it gives True.

• YSKDAKEIYYTPDPSEL [FAS2] = False
• KVSAREKSAYKFFHNGM [FAS2] = True
• AFLSFLAYRNYWTQYLG [YJL039C/NUP192] = False
• DGHYIEENSQGNILDFN [REC8] = False
• EKIKMKLKQGQKLFVQV [GAL11] = True
• IPAGIYWYWWKNGNEYN [QCR8] = False
• LDALTRHIKSKHEDLSL [RPN4] = False
• GNSERPSAVAGFINQKN [YIL149C/MLP2] = True
• KFNNGVVIAADTRSTQG [PUP1] = False

---

Documented protein stability index across a set of sequences
assay: protein stability index of a GFP-peptide fusion (yeast GPS) (PSI 1-4); higher = more stable; sorted into four equal gates, so the index is relative within each strain; conditions: doa10∆
observable: protein stability index

* LVLNKSSIDRGFGRCET [RET1] | 3.03
* EKLKQFSWISVVNDLVG [SIR3] | 1.61
* ELVKAHLGERAASVIGM [RPC82] | 2.55
* TVAVLPPNWKYESATAS [RPS13] | 1.63
* LVISLAATNETFENINS [IRR1] | 2.07
* MAESHRLYVKGKHLSYQ [RPL33A] | 2.71
* KRFLILQGEVENIAQMK [SMC4] | 3.05
* TMTISHLLLGFQVSNVI [YJL039C/NUP192] | 1.41
* SELIRTTLDAEKVFTQG [FAS1] | 3.14
* DKFRKACSSSGRETILS [SIR3] | 1.94
* QQKQQQQQQQHQQQQQQ [SNF5] | 2.73
* LAFKKNEMLLKRVTKVK [MTW1] | 1.77
* KDDMKVDDAIELALKTL [PRE9] | 2.76
* HGHLGFLPRKRAASIRA [RPL3] | 2.1
* YEEFRDVAIENNTLSRY [RRP43] | 3.24
* RELARIKKYASVVRVLV [RPL3] | 1.32
* YPIYELLMSCPRLSHLS [GRR1] | 1.42
* FITFSLDDWISIGYETE [IRR1] | 2.56
* DIEAGDDDDNNESSSNT [DIS3] | 3.51
* SGTYHLNCGNGMGIGFI [POP1] | 3.07
* KVLQLLRLTRINSGTFV [RPL7A] | 1.8
* IHIQSKENYPWELYTDF [POP3] | 2.99
* FKYIYELILAGAIDEAL [YDL116W/NUP84] | 1.6
* MPPKFDPNEVKYLYLRA [RPL12A] | 2
* EKKAEYFAKLREYLEEY [RPP0] | 3.44
* GVLKPDITFFGEALPNK [SIR2] | 3.34
* QLAGKSGEDTNVGLPIL [YOR098C/NUP1] | 2.86
* AQSSHIRAIRKVISEIL [RPS1A] | 1.55
* QLNEKLVGRLRKCETQK [YCS4] | 2.03
* GSSAGMNGRSLTYAQQQ [SNF6] | 2.99
* NGNKDSSFNFNKNLPFV [SWI1] | 3.21
* QTSRGLFGNNNTNNINN [YGL172W/NUP49] | 3.1
* AFIFGLQDELKELQLEK [SMC3] | 3.23
* RNNVMLLIATNLKEYNK [SRB8] | 2.44
* QIIQRDKINKYSLIRET [SNF5] | 1.39
* EISISFDVNNIDMHLIY [YDL116W/NUP84] | 1.94
* PHHNQSPRNTYQCAMGK [RET1] | 2.68
* SDGQSRVKDIHLRKLLD [RET1] | 2.88
* LRLPFSAAMSIDKLSDV [PRP8] | 2.43
* VAALALLFAINSYQPSP [SMC1] | 1.62
* VENLTVAQECIAFLKKQ [SMC1] | 2.12
* VEQDEGQCRTELEGSFN [YCS4] | 3.38
* FEGVTHRWGTKKLPRKT [RPL3] | 3.31
* GRNRGRPNRRGPRNTEE [RPS2] | 3.38
* EISPQDSIASVLSPDSN [GAL11] | 1.99
* TEQQIEIPEGVTVSIKS [RPL9B] | 2.24
* RAGQRGYHSRTSINHKI [RPL3] | 2.85
* AISTGNWSLKRFKMERA [RET1] | 1.94
* EWVKLHRLLQRALFRQL [RMP1] | 1.47
* HVKIRATGGTRTKTPGP [RPS14B] | 1.38
* VPLTKRYQHLEKITQIS [PCI8] | 2.39
* IPMSKTIKDLVGGKSTV [FAS2] | 2.96
* LKPVDKLKPMNIERKQT [SIN4] | 2.82
* DPSQNRLTGSLLAHKVA [RPC37] | 2
* VPSAKPLILTPPQLANQ [SNF11] | 2.63
* IFTCQIMNLITNEPCGA [RPN4] | 2.07
* LPKVRYNVEKVKRLMDF [NSL1] | 1.8
* RVHDQPLIWQLLQSSII [POP3] | 1.43
* NFGGGNNTTPSSTGNAN [YJL041W/NSP1] | 2.05
* SNILLNSLTKYPDLKAF [MED1] | 1.98

---

test: protein stability index of a GFP-peptide fusion (yeast GPS) (PSI 1-4); higher = more stable; sorted into four equal gates, so the index is relative within each strain; conditions: pdr5∆
I'd appreciate it if you could label each record using protein stability index and these ranges: 1 (below 2), 2 (2 to below 3), 3 (3 or more)

* LGDKELWPVAIGLIALS [YJR042W/NUP85] | 1
* DEFIKTHEDLPKEVDGL [IRR1] | 3
* PETCLFVSYFGKQIKST [YML103C/NUP188] | 2
* RKINLFYLYMLVQKFGG [SWI1] | 1
* SSAKRSKNTAVSKVQKR [SRP72] | 2
* KDNAIYNGFIDIFSNLS [YCS4] | 2
* YPNEVLKFNHGNYSHLM [REC8] | 2
* TDANGKTIVTGGNGPED [RPO26] | 3
* SPEESKARSPGIAKPNA [SIR4] | 3
* MCQNPMQKPVPFVPVLD [FAS1] | 1
* AIKDKLEQDLHFENAKV [YIL149C/MLP2] | 3
* IVKTTTKQRLDAYYDLE [PRP8] | 3
* SKFNNADDVFTGTGLQD [RPC31] | 3
* EIIADWIWDMNVHGSLE [BRR2] | 2
* PHELTESVLPAARYDYA [QCR2] | 1
* PKYAKQKDKSDTYKRFK [ISW2] | 3
* ITVHAPLLPIVEELMKK [SNU114] | 2
* QVEYALEAIKQGSVTVG [PRE5] | 3
* ASLKHDNETKAMLINLI [RPN3] | 3
* IKVWTIKGQCLATLLGH [ASC1] | 1
* EIRAKEYKTSSDSLGPD [SRB2] | 2
* VTRTHGNSGVVRATFRN [RPL33A] | 2
* NLRKSRGMLGLLEPPAK [RPO31] | 1
* GAETDELSMIMEHFSQQ [RPS12] | 3
* SALIENNLFRIIAELSF [YJL039C/NUP192] | 2
* IVLDEVRNKSYPVYTRL [DIS3] | 2
* DEGGAKSLLLNTLNIDN [BRN1] | 3
* NSEYLKRRVTNLEFNYT [SMC2] | 2
* LSSYQKKIIKCDEHMGL [PRE5] | 2
* PSLRKLIESGIGTHHAG [BRR2] | 3
* CDVFWVQKDTAIIRLHP [POP1] | 2
* NEEGDWSCIVVENWIID [ITC1] | 2
* KVSSAEYYAKKRAFTKK [RPL16A] | 3
* AHIEKQSLDTIGGSDAA [RPO21] | 3
* HVKIRATGGTRTKTPGP [RPS14B] | 1
* NNSLSYHSGRLLIQGPK [ITC1] | 2
* VAALALLFAINSYQPSP [SMC1] | 1
* DIAGQRDDALVVETITS [RRP42] | 3
* VILRKISMLVTQLQRGG [CSI1] | 1
* LRLGRGINPNTFRIFHN [YDL088C/ASM4] | 1
* HAQLLLSDRITGNFIIP [PRP8] | 2
* ITASTLLYADSLTAEAM [CYT1] | 2
* SFKGSPNERKAKQAKIR [SNF2] | 3
* TIRQIILPDSLNLDSLL [SMD1] | 2
* IEEIEYNVKNIIQGRKN [PCI8] | 2
* EGWFYKRAASVARHIYM [RPS19A] | 2
* SLGFNEVFSRPEWMILT [RPO21] | 1
* RFEKAVKHVFGKTIVVK [SMC3] | 3
* LVLLELVSSGDRFIELI [YML103C/NUP188] | 2
